Where do the numbers come from? From patent US20260130395A1.

Assay: Stability of cannabinoid compounds and Vitamin E components in Beverage 1 (AB White) by LCMSMS
Type: physicochemical
Settings: AB White stored at 8° C.; 22 days
Listed next: entries and their corresponding Stability of Plant-Derived Cannabinoid Compounds in AB White, 8° C..
State the answer as a number, implicitly in µg/mL.

See these solved cases before continuing.
CCCCCc1cc2c(c(O)c1C(=O)O)[C@@H]1C=C(C)CC[C@H]1C(C)(C)O2 [D9 THCA, delta-9-tetrahydrocannabinolic acid]; 0.960
CCCCCc1cc(O)c2c(c1)OC(C)(C)[C@@H]1CCC(C)=C[C@@H]21 [D9 THC, delta-9-tetrahydrocannabinol, reference compound]; 11.97
CCCCCc1cc(O)c2c(c1)OC(C)(C)c1ccc(C)cc1-2; 2.76

Let us examine a further case.
Item: C=C(C)[C@@H]1CCC(C)=C[C@H]1c1c(O)cc(CCCCC)cc1O [CBD, cannabidiol, reference compound] | Stability of Plant-Derived Cannabinoid Compounds in AB White, 8° C.: 28.50

====

Listed next: entries and their corresponding Stability of Plant-Derived Cannabinoid Compounds in AB White, 21-25° C..
Assay: Stability of cannabinoid compounds and Vitamin E components in Beverage 1 (AB White) by LCMSMS
Type: physicochemical
Settings: AB White stored at 21-25° C.; 120 days
State the answer as a number, implicitly in µg/mL.

See these solved cases before continuing.
CCCCCc1cc(O)c2c(c1)OC1(C)CCC3C1C2C3(C)C (stereo not shown) [CBL, cannabicyclol]; 0.516
CCCCCc1cc(O)c2c(c1)OC(C)(C)c1ccc(C)cc1-2 [CBN, cannabinol]; 2.67
CCCCCc1cc(O)c(C/C=C(\C)CCC=C(C)C)c(O)c1 [CBG, cannabigerol]; 4.59

Let us examine a further case.
Item: CCCCCc1cc2c(c(O)c1C(=O)O)[C@@H]1C=C(C)CC[C@H]1C(C)(C)O2 [D9 THCA, delta-9-tetrahydrocannabinolic acid] | Stability of Plant-Derived Cannabinoid Compounds in AB White, 21-25° C.: 0.894

====

Test: Stability of cannabinoid entourage and Vitamin E components of the powder concentrate by LCMSMS
Type: physicochemical
Conditions: powder stored at 21-25° C.; 29 days
Listed next: entries and their corresponding Stability of Plant-Derived Cannabinoid Compounds in Powder Concentrate.
State the answer as a number, implicitly in mg/g powder.

See these solved cases before continuing.
CCCCCc1cc(O)c2c(c1)OC(C)(C)c1ccc(C)cc1-2; 0.484
CCCc1cc(O)c2c(c1)OC(C)(C)[C@@H]1CCC(C)=C[C@@H]21 [THCV, delta-9-tetrahydrocannabivarin]; 0.706
CCCCCc1cc2c(c(O)c1C(=O)O)[C@@H]1C=C(C)CC[C@H]1C(C)(C)O2 [D9 THCA, delta-9-tetrahydrocannabinolic acid]; 0.152
CCCCCc1cc(O)c2c(c1)OC1(C)CCC3C1C2C3(C)C (stereo not shown); 0.048
CCCCCc1cc(O)c(C/C=C(\C)CCC=C(C)C)c(O)c1; 1.10
CCCCCc1cc(O)c2c(c1)OC(C)(C)[C@@H]1CCC(C)=C[C@@H]21 [D9 THC, delta-9-tetrahydrocannabinol, reference compound]; 2.47
C=C(C)[C@@H]1CCC(C)=C[C@H]1c1c(O)cc(CCCCC)c(C(=O)O)c1O; 0.426
C=C(C)[C@@H]1CCC(C)=C[C@H]1c1c(O)cc(CCC)cc1O; 0.049

Item: C=C(C)[C@@H]1CCC(C)=C[C@H]1c1c(O)cc(CCCCC)cc1O [CBD, cannabidiol, reference compound] | Stability of Plant-Derived Cannabinoid Compounds in Powder Concentrate: 5.97

Item: CCCCCc1cc(O)c2c(c1)OC(C)(CCC=C(C)C)C=C2 (stereo not shown) | Stability of Plant-Derived Cannabinoid Compounds in Powder Concentrate: 0.069

====

Experiment: Stability of cannabinoid entourage and Vitamin E components of the powder concentrate by LCMSMS
Type: physicochemical
Settings: powder stored at 21-25° C.; 0 days
Classify: fulfilled when Stability of Plant-Derived Cannabinoid Compounds in Powder Concentrate is strictly less than 0.5 mg/g powder; not fulfilled when Stability of Plant-Derived Cannabinoid Compounds in Powder Concentrate is not.

CCCc1cc(O)c2c(c1)OC(C)(C)[C@@H]1CCC(C)=C[C@@H]21 [THCV, delta-9-tetrahydrocannabivarin]; not fulfilled
C=C(C)[C@@H]1CCC(C)=C[C@H]1c1c(O)cc(CCC)cc1O; fulfilled
CCCCCc1cc(O)c2c(c1)OC1(C)CCC3C1C2C3(C)C (stereo not shown); fulfilled

Ask | Report whether reported Stability of Plant-Derived Cannabinoid Compounds in Powder Concentrate is lower than 0.5 mg/g powder (strictly) for CCCCCc1cc(O)c2c(c1)OC(C)(C)c1ccc(C)cc1-2
Reply | fulfilled

Ask | Report whether reported Stability of Plant-Derived Cannabinoid Compounds in Powder Concentrate is lower than 0.5 mg/g powder (strictly) for C=C(C)[C@@H]1CCC(C)=C[C@H]1c1c(O)cc(CCCCC)cc1O [CBD, cannabidiol, reference compound]
Reply | not fulfilled

Ask | Report whether reported Stability of Plant-Derived Cannabinoid Compounds in Powder Concentrate is lower than 0.5 mg/g powder (strictly) for C=C(C)[C@@H]1CCC(C)=C[C@H]1c1c(O)cc(CCCCC)c(C(=O)O)c1O
Reply | fulfilled

Ask | Report whether reported Stability of Plant-Derived Cannabinoid Compounds in Powder Concentrate is lower than 0.5 mg/g powder (strictly) for CCCCCc1cc(O)c(C/C=C(\C)CCC=C(C)C)c(O)c1
Reply | not fulfilled

Ask | Report whether reported Stability of Plant-Derived Cannabinoid Compounds in Powder Concentrate is lower than 0.5 mg/g powder (strictly) for CCCCCc1cc(O)c2c(c1)OC(C)(C)[C@@H]1CCC(C)=C[C@@H]21 [D9 THC, delta-9-tetrahydrocannabinol, reference compound]
Reply | not fulfilled

Ask | Report whether reported Stability of Plant-Derived Cannabinoid Compounds in Powder Concentrate is lower than 0.5 mg/g powder (strictly) for CCCCCc1cc2c(c(O)c1C(=O)O)[C@@H]1C=C(C)CC[C@H]1C(C)(C)O2 [D9 THCA, delta-9-tetrahydrocannabinolic acid]
Reply | fulfilled

Ask | Report whether reported Stability of Plant-Derived Cannabinoid Compounds in Powder Concentrate is lower than 0.5 mg/g powder (strictly) for CCCCCc1cc(O)c2c(c1)OC(C)(CCC=C(C)C)C=C2 (stereo not shown)
Reply | fulfilled

====

Experiment: Stability of cannabinoid entourage and Vitamin E components of the powder concentrate by LCMSMS
Type: physicochemical
Conditions: powder stored at 21-25° C.; 510 days
Mark 1 for reported Stability of Plant-Derived Cannabinoid Compounds in Powder Concentrate of 0.2 mg/g powder or greater; mark -1 for anything smaller.

These recorded examples may help you get a feel for the data.
CCCCCc1cc2c(c(O)c1C(=O)O)[C@@H]1C=C(C)CC[C@H]1C(C)(C)O2 [D9 THCA, delta-9-tetrahydrocannabinolic acid]; -1
C=C(C)[C@@H]1CCC(C)=C[C@H]1c1c(O)cc(CCC)cc1O; -1

Ask | Item CCCCCc1cc(O)c2c(c1)OC(C)(CCC=C(C)C)C=C2 (stereo not shown) with Stability of Plant-Derived Cannabinoid Compounds in Powder Concentrate of 0.2 mg/g powder or above?
Reply | -1

====

Assay: Stability of cannabinoid compounds and Vitamin E components in Beverage 1 (AB White) by LCMSMS
Format: physicochemical
Conditions: AB White stored at 8° C.; 11 days
Listed next: entries and their corresponding Stability of Plant-Derived Cannabinoid Compounds in AB White, 8° C..
State the answer as a number, implicitly in µg/mL.

C=C(C)[C@@H]1CCC(C)=C[C@H]1c1c(O)cc(CCC)cc1O [CBDV, cannabidivarin]; 0.150
CCCCCc1cc(O)c2c(c1)OC(C)(C)[C@@H]1CCC(C)=C[C@@H]21 [D9 THC, delta-9-tetrahydrocannabinol, reference compound]; 11.83
CCCCCc1cc(O)c(C/C=C(\C)CCC=C(C)C)c(O)c1 [CBG, cannabigerol]; 4.87
C=C(C)[C@@H]1CCC(C)=C[C@H]1c1c(O)cc(CCCCC)c(C(=O)O)c1O [CBDA, cannabidiolic acid]; 1.70

Item: CCCCCc1cc2c(c(O)c1C(=O)O)[C@@H]1C=C(C)CC[C@H]1C(C)(C)O2 [D9 THCA, delta-9-tetrahydrocannabinolic acid] | Stability of Plant-Derived Cannabinoid Compounds in AB White, 8° C.: 0.929

Item: CCCc1cc(O)c2c(c1)OC(C)(C)[C@@H]1CCC(C)=C[C@@H]21 [THCV, delta-9-tetrahydrocannabivarin] | Stability of Plant-Derived Cannabinoid Compounds in AB White, 8° C.: 3.59

Item: C=C(C)[C@@H]1CCC(C)=C[C@H]1c1c(O)cc(CCCCC)cc1O [CBD, cannabidiol, reference compound] | Stability of Plant-Derived Cannabinoid Compounds in AB White, 8° C.: 28.13

Item: CCCCCc1cc(O)c2c(c1)OC1(C)CCC3C1C2C3(C)C (stereo not shown) [CBL, cannabicyclol] | Stability of Plant-Derived Cannabinoid Compounds in AB White, 8° C.: 0.544

Item: CCCCCc1cc(O)c2c(c1)OC(C)(CCC=C(C)C)C=C2 (stereo not shown) [CBC, cannabichromene] | Stability of Plant-Derived Cannabinoid Compounds in AB White, 8° C.: 0.314

Item: CCCCCc1cc(O)c2c(c1)OC(C)(C)c1ccc(C)cc1-2 [CBN, cannabinol] | Stability of Plant-Derived Cannabinoid Compounds in AB White, 8° C.: 2.71
